Biological target: Cannabinoid receptor 1 (Homo sapiens, UniProt P21554)
Sequence (P21554 whole entry): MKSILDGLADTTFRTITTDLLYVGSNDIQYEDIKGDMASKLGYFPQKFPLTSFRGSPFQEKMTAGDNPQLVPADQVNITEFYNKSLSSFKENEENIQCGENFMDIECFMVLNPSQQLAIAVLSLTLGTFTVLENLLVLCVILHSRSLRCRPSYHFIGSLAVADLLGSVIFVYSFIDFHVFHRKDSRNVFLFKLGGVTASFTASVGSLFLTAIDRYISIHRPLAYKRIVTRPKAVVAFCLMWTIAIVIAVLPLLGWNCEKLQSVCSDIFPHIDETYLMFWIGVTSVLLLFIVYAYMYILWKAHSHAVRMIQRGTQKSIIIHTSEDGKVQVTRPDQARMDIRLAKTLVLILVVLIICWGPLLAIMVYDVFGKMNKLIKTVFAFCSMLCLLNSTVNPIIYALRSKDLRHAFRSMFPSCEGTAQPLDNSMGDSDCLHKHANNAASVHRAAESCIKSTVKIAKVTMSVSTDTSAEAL
Test: Agonist activity at human CB1 receptor assessed as inhibition of forskolin-induced cAMP production preincubated for 15 mins followed by forskolin challenge measured after 30 mins by HTRF assay
Assay type: functional
# EC50 values compiled below

Some entries whose results are on file:
compound=CC(C)(C)NC(=O)c1nn(-c2ccc(F)cc2F)c2c1[C@H]1CC[C@@H]2C1 assay_result="0.854 µM"
compound=CN(C1CCOCC1)C(C)(C)C(=O)Nc1cc(C(C)(C)CO)no1 assay_result="> 50 µM"
compound=COc1ccc(-c2nnc(NC(=O)C(C)(C)S(=O)(=O)C3CCOCC3)[nH]2)cc1 assay_result="> 20 µM"
compound="CC(NC(=O)c1nc(N2CCOCC2)n2ccccc12)C(C)(C)C (stereo unspecified)" assay_result="> 17 µM"
compound=CC(C)(CO)c1cc(NC(=O)C(C)(C)S(=O)(=O)C2CCOCC2)on1 assay_result="> 50 µM"

// next item, EC50 requested
For the compound `CNC(=O)[C@@H](NC(=O)c1nc(-c2ccccc2)n2c1CN(C)CCC2)C(C)(C)C` , what EC50 is on record?
> 10 µM

* * *

Molecular target: Cannabinoid receptor 2 (Homo sapiens, UniProt P34972)
Sequence (P34972 whole entry): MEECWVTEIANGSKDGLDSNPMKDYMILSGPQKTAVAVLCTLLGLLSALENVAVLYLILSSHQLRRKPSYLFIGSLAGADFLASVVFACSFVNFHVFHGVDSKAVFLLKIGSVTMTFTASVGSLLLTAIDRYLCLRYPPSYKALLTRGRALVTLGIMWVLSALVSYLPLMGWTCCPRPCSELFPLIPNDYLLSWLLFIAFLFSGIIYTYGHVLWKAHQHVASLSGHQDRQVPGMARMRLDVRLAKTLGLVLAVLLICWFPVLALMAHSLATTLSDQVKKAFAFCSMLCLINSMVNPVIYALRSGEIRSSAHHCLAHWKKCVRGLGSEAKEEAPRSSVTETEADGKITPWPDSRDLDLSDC
Assay: Agonist activity at human CB2 receptor expressed in CHO-K1 cells assessed as inhibition of forskolin-induced cAMP accumulation by TR-FRET assay
Format: functional, cell-based
recorded-endpoint: EC50 (nM)
Express it in nM; write the number only.

Looking for the measured EC50 of `O=C(NC1CCCC1)c1ccc2c(c1)N(S(=O)(=O)c1ccc(F)cc1)CCS2` , can you help?
1

* * *

Molecular target: Cannabinoid receptor 1 (Homo sapiens, UniProt P21554)
Assay: Displacement of [3H]-CP55940 from human CB1 receptor by liquid scintillation counting
Measured Ki by item
Supply the numeric figure in µM, leaving out any unit text.

compound=CCCCCCC(C)(C)c1cc(OC)c([C@]2(O)CCC[C@@H](C)C2)c(OC)c1 recorded_endpoint=Ki unit_abbreviation=µM assay_result=5.05

Next up:
Record request: Ki value, item CN1CCCCC1Cn1cc(C(=O)c2cc([N+](=O)[O-])ccc2I)c2ccccc21 (racemic)
0.58

* * *

Target: Cannabinoid receptor 2 (Homo sapiens, UniProt P34972)
Assay: Displacement of [3H]-CP55940 from human CB2 receptor expressed in HEK293 cells after 90 mins by liquid scintillation counting
Format: cell-based
recorded-endpoint: pEC50
Bear in mind: pEC50 is minus log10 of a mol/L concentration; give just that figure.

I would be grateful if you could share the reported pEC50 for `CCNC(=O)c1c(NC(=O)C23CC4CC(CC(C4)C2)C3)sc2c1CCOC2` .
7.68

* * *

Target: Cannabinoid receptor 2 (Rattus norvegicus, UniProt Q9QZN9)
Sequence (Q9QZN9 whole entry): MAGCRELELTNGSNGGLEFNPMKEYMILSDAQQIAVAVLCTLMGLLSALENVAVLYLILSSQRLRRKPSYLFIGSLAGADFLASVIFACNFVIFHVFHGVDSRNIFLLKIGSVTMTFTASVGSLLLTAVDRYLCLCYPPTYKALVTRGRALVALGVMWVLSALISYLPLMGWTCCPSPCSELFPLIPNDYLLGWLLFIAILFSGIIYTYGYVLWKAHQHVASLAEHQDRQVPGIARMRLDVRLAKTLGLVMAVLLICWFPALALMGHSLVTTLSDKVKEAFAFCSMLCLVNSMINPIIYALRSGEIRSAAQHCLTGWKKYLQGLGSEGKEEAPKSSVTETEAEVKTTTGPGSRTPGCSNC
Test: Agonist activity at rat CB2 receptor expressed in CHO-K1 cells assessed as inhibition of forskolin-induced cAMP accumulation
Assay type: functional, cell-based
recorded-endpoint: EC50 (nM)
Express it in nM; write the number only.

# input molecule: `CN1CCCC[C@H]1Cn1cc(C(=O)c2cc([N+](=O)[O-])ccc2I)c2ccccc21` ; wanted: its EC50
785

* * *

Biological target: UniProt:P21554
Experiment: Agonist activity at human CB1 receptor expressed in CHO cells assessed as effect on [35S]-GTPgammaS binding after 30 mins by scintillation counting
Format: functional, cell-based
recorded-endpoint: EC50

Reported EC50 for Cc1nc(N2CCN(C)CC2)c2nc(-c3ccccc3Cl)n(C(C)CO)c2n1 (stereo unspecified) : what is it?
> 100 µM

The measurements presented in this section are drawn from ChEMBL document CHEMBL3232786.
